Settings: Ebola virus entry assay, green fluorescence channel
Entries with a potency or affinity are not part of this list.
Reported efficacy values are given for each entry in this list.
State the answer as a number, implicitly in %.

Some compounds with recorded efficacy:
CCCCCCCCCCCCCCCC(=O)OC(C)C
10.3
CC(=O)CC/C=C(\C)CC/C=C(\C)CC/C=C(\C)CCC=C(C)C
-14.5

Reported efficacy, compound COc1cc(C(=O)NC2CCCNC2)cc(OC)c1OC (configuration not stated) : ____
-16

Try this compound next: `C/C=C1\[C@H]2C=C(C)C[C@]1(N)c1ccc(=O)[nH]c1C2`
25.8

Try this compound next: `Cc1cc(C)nc(NS(=O)(=O)c2ccc(N)cc2)n1`
-8.79

Cool, now `CCCCCCCCCCCCOCCO`
-11.3

Can you handle `CC(C)NNC(=O)c1ccncc1` next?
-20.5

----------
Test: qHTS assay for small molecule antagonists of retinoid X receptor alpha signaling (AID 588546);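 further: cells stimulated with 9-cis-retinoic acid as agonist; on the % scale 0 is the no-effect control and ±100 the full control effect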
Settings: HEK293T RXRa-UAS-bla, beta-lactamase ratio, antagonist mode; measured here: W530 green channel, cytotoxicity proxy
Inconclusive results are not listed.
quantity: max response (%)
Write the answer as a number in %, unit excluded.

Some solved cases for reference:
COc1cc(OC)c(OC)cc1C=O
-5.72
COP(=S)(OC)Oc1cc(Cl)c(Cl)cc1Cl
1.09

Recorded max response for `Nc1ccc([As](=O)(O)O)cc1` , please?
-13.3

Now give it for `Nc1ccccc1C(=O)O` too.
-6.42

Queued: `Oc1ccc(Cl)cc1`
-7.58

Can you handle `C[C@]12CCC(=O)C=C1CC[C@@H]1[C@@H]2CC[C@@]2(C)[C@H]1CC[C@]2(C)O` next?
-11.8

Also, `O=C1c2ccccc2C(=O)c2ccccc21` please.
-16.5

Field entry: COC(=O)C(c1ccccc1)C1CCCCN1 (configuration not stated)
-4.37

Then this compound: `C[C@]1(O)CC[C@H]2[C@@H]3CCC4=CC(=O)CC[C@]4(C)[C@@]3(F)[C@@H](O)C[C@@]21C`
17.9

And the next one, `CC(C)NC(C)C` ?
-16.3

Then what about the compound `C[C@]12CCC(=O)C=C1CC[C@@H]1[C@@H]2CC[C@]2(C)C(=O)CC[C@@H]12` ?
24.5

And what about the compound `[N-]=[N+]=CC(=O)OC[C@H](N)C(=O)O` ?
-15.7

----------
Experiment: qHTS of pediatric cancer cell lines to identify multiple opportunities for drug repurposing: Primary screen for NB1643 cells (AID 1347099); further: nearly all actives have a fitted effect of over 50% in size
Details: NB1643 neuroblastoma viability, CellTiter-Glo luminescence, 48 h; series mostly up to 46 µM
Records with an inconclusive call do not appear. Activity calls are given as the source filed them. Calls follow the shape of the dose curve; as a rule, active = well fitted cell-killing curve with a large enough effect; inconclusive = small, poorly fitted or top-dose-only effect; inactive = no such curve, though single readings can be large or run the other way.
A correct response names exactly one class from 1.0 for active, 0.0 for inactive

CCN(CC)CCc1c[nH]c2ccccc12
0.0
O=C1OC(c2ccc(O)c(S(=O)(=O)O)c2)(c2ccc(O)c(S(=O)(=O)O)c2)c2c(Br)c(Br)c(Br)c(Br)c21
0.0
CC(NC(C)(C)C)C(=O)c1cccc(Cl)c1 (stereo unspecified)
0.0
CCOP(=S)(OCC)Oc1ccc2c(C)c(Cl)c(=O)oc2c1
0.0
CC(Cc1ccccc1)N(C)Cc1ccco1 (stereo unspecified)
0.0
CN(C)CCc1c[nH]c2cccc(OP(=O)(O)O)c12
0.0
CCC(CC)(CNC(=O)CCCO)c1cccc(OC)c1
0.0
CCCCCCCCCC(=O)O[C@H]1CC[C@H]2[C@@H]3CCC4=CC(=O)CC[C@@H]4[C@H]3CC[C@]12C
0.0
COP(=S)(OC)Oc1cc(Cl)c(Cl)cc1Cl
0.0
C=CCC1([C@H](C)CCC)C(=O)NC(=O)NC1=O
0.0

So what was the verdict on `CCCCCCC(=O)CCCCCC/C=C/C[C@@H](O)[C@H](O)[C@@](N)(CO)C(=O)O` in this test?
0.0

// same read-out, input: `C[C@]12CCC(=O)C=C1CC[C@@H]1[C@H]3CC[C@](C)(O)[C@@]3(C)CC[C@@H]12`
1.0

Also `O=C1CN=C(c2ccccc2)c2cc([N+](=O)[O-])ccc2N1` , if possible.
0.0

Param item: `C[C@@H]1CC2=CC(=O)CC[C@@H]2[C@H]2CC[C@@]3(C)[C@@H](CC[C@]3(C)O)[C@@H]21`
0.0

Try this compound next: `O=c1[nH]oc2c1CCNC2`
0.0
